test.method.notes: HILIC, Waters ACQUITY UPLC BEH Amide, 100 × 2.1 mm, 1.7 µm; A: water + 0.125% formic acid + 10 mM ammonium formate; B: 5% water + 95% acetonitrile + 0.125% formic acid + 10 mM ammonium formate; gradient (min/%B) 0/100 2/100 7.7/70 9.5/40 10.25/30 12.75/100 17/100
condition.context: stereoisomer not certain
observable: LC retention time (min)
Write it as a number; the unit min goes unstated.

Below, each entry is followed by its recorded LC retention time result.
Can you look up the measured LC retention time of CC(c1cc2ccccc2s1)N(O)C(N)=O (stereo not given) for me?
1.23

Can you look up the measured LC retention time of Cc1ccc(-c2nc3ccc(C)cn3c2CC(=O)N(C)C)cc1 for me?
1.62

Further cases:
Can you look up the measured LC retention time of CC(=O)NC(CS)C(=O)O (stereo not given) for me?
5.28

Can you look up the measured LC retention time of CC(C)(C)NCC(O)c1ccc(O)c(CO)c1 (stereo not given) for me?
5.55

Can you look up the measured LC retention time of CN(C)CCOC(c1ccccc1)c1ccccc1 [Diphenhydramine] for me?
2.15

Can you look up the measured LC retention time of CC(=O)Oc1ccccc1C(=O)Nc1ncc([N+](=O)[O-])s1 [Nitazoxanide] for me?
1

Can you look up the measured LC retention time of Nc1ccn(C2OC(CO)C(O)C2O)c(=S)n1 (stereo not given) for me?
5.33

###

test.method.notes: HILIC, Waters ACQUITY UPLC BEH Amide, 100 × 2.1 mm, 1.7 µm; A: water + 0.125% formic acid + 10 mM ammonium formate; B: 5% water + 95% acetonitrile + 0.125% formic acid + 10 mM ammonium formate; gradient (min/%B) 0/100 2/100 7.7/70 9.5/40 10.25/30 12.75/100 17/100
condition.context: stereoisomer not certain
// values below are reported LC retention time
Write it as a number; the unit min goes unstated.

Below, each entry is followed by its recorded LC retention time result.
Can you look up the measured LC retention time of O=C(CO)c1ccccc1 [2-Hydroxyacetophenone] for me?
4.36

Can you look up the measured LC retention time of O=c1ccc2ccccc2[nH]1 [2-Hydroxyquinoline] for me?
1.51

Can you look up the measured LC retention time of c1ccc2scnc2c1 [Benzothiazole] for me?
1.11

Further cases:
Can you look up the measured LC retention time of COc1cc(C(=O)O)cc(OC)c1O [Syringic acid] for me?
1.35

Can you look up the measured LC retention time of Nc1ccn(C2CC(O)C(COP(=O)(O)O)O2)c(=O)n1 (centres undefined) [2-Deoxycytidine-5-monophosphoric acid] for me?
9.16

###

// values below are reported LC retention time
test.method.notes: HILIC, Waters ACQUITY UPLC BEH Amide, 100 × 2.1 mm, 1.7 µm; A: water + 0.125% formic acid + 10 mM ammonium formate; B: 5% water + 95% acetonitrile + 0.125% formic acid + 10 mM ammonium formate; gradient (min/%B) 0/100 2/100 7.7/70 9.5/40 10.25/30 12.75/100 17/100
condition.context: stereoisomer not certain
Write it as a number; the unit min goes unstated.

Can you look up the measured LC retention time of c1ncc2[nH]cnc2n1 for me?
2.44

###

// values below are reported LC retention time
test.method.notes: HILIC, Waters ACQUITY UPLC BEH Amide, 100 × 2.1 mm, 1.7 µm; A: water + 0.125% formic acid + 10 mM ammonium formate; B: 5% water + 95% acetonitrile + 0.125% formic acid + 10 mM ammonium formate; gradient (min/%B) 0/100 2/100 7.7/70 9.5/40 10.25/30 12.75/100 17/100
condition.context: stereoisomer not certain
Write it as a number; the unit min goes unstated.

Below, each entry is followed by its recorded LC retention time result.
Can you look up the measured LC retention time of CC(=O)NCCC(=O)NC(Cc1cnc[nH]1)C(=O)O [N-Acetyl-L-carnosine] for me?
8.35

Can you look up the measured LC retention time of O=C(O)CCNC(=O)c1ccc(N=Nc2ccc(O)c(C(=O)O)c2)cc1 [Balsalazide] for me?
4.85

Can you look up the measured LC retention time of Cc1ccc(O)c(C(CCN(C(C)C)C(C)C)c2ccccc2)c1 (stereo not drawn) [Tolterodine] for me?
2.13

Can you look up the measured LC retention time of CNC(=C[N+](=O)[O-])NCCSCc1ccc(CN(C)C)o1 [Ranitidine] for me?
5.18

Can you look up the measured LC retention time of O=c1cnn(C2OC(CO)C(O)C2O)c(=O)[nH]1 (stereo not drawn) [6-Azuridine] for me?
4.31

Further cases:
Can you look up the measured LC retention time of COC(=O)c1ccccc1C(=O)OC [Dimethyl phthalate] for me?
1.04

Can you look up the measured LC retention time of NCC1CCC(C(=O)O)CC1 (stereo not drawn) [4-Aminomethylcyclohexanecarboxylic acid] for me?
6.6

Can you look up the measured LC retention time of O=c1[nH]c(=O)c2ncn(C3OC(CO)C(O)C3O)c2[nH]1 (stereo not drawn) [Xanthosine] for me?
7.3

Can you look up the measured LC retention time of COc1ccnc(CS(=O)c2nc3ccc(OC(F)F)cc3[nH]2)c1OC (stereo not drawn) [Pantoprazole] for me?
1.21

Can you look up the measured LC retention time of Cn1c(NCCN(CCO)CCCc2ccc([N+](=O)[O-])cc2)cc(=O)n(C)c1=O [Nifekalant] for me?
3.21

Can you look up the measured LC retention time of CNC(=O)Oc1ccc2c(c1)C1(C)CCN(C)C1N2C (stereo not drawn) [Physostigmine] for me?
3.17

Can you look up the measured LC retention time of CC(C)CC(N)C(=O)NC(CCCN=C(N)N)C(=O)O (stereo not drawn) [Leu-Arg] for me?
8.86

Can you look up the measured LC retention time of CC(C)CC(NC(=O)CN)C(=O)O (stereo not drawn) [Glycyl-leucine] for me?
8.14
